Kindly state inhibition for each of the entries shown.
# assayNotes: M. tuberculosis growth inhibition, HTS (AID 449762);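 also: bacterial growth assessed after seven days of incubation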
# appliedConditions: M. tuberculosis H37Rv growth inhibition, 7H9 media; at 25 µM; stronger effect = higher value
Screen size: about 330,000 compounds; about 1,900 (0.58%) were called active. About 4% were inconclusive and are not listed. Not all results are given here. Measured potencies and affinities stand elsewhere.

What value of measured inhibition is listed for `O=c1oc(-c2cccs2)nc2ccccc12` ? -3.68% (inactive)

What value of measured inhibition is listed for `COc1cc(/C=c2\s/c(=C\C(=O)C(C)(C)C)[nH]c2=O)cc(OC)c1OC` ? 69% (inactive)

What value of measured inhibition is listed for `Cc1cc(C)c(NC(=O)C(C)(C)C)c(Cl)c1` ? -1.65% (inactive)

What value of measured inhibition is listed for `O=C(NN1CCOCC1)C12CC3CC(CC(C3)C1)C2` ? -3.63% (inactive)

What value of measured inhibition is listed for `Cc1ccc(C(=O)CCNc2ccc(Br)cc2)o1` ? -5.24% (inactive)

What value of measured inhibition is listed for `O=c1c2cnn(-c3ccccc3)c2nc(-c2cccs2)n1-c1ccc(Br)cc1` ? 1.78% (inactive)

What value of measured inhibition is listed for `CCN(CC)S(=O)(=O)c1ccc2[nH]cc(C(=O)NCCN3CCCCCC3)c(=O)c2c1` ? -8.55% (inactive)

What value of measured inhibition is listed for `O=C(CSc1ncn[nH]1)NCc1ccc(Cl)cc1` ? 23.7% (inactive)

What value of measured inhibition is listed for NC(=O)[C@H](Cc1cc2ccccc2s1)NC(=O)[C@@H]1CC2(CC(c3cccc(NC(=O)[C@@H]4CCC(=O)N4)c3)=NO2)CN1C(=O)c1ccccc1 (stereo partly drawn) ? -4.74% (inactive)

What value of measured inhibition is listed for `CC(C)(C)N=C1NC(=NC(C)(C)C)c2ccccc21` ? 1.58% (inactive)

What value of measured inhibition is listed for CCNC(=O)N(CCOC)CC1CCCN(C2Cc3ccccc3C2)C1 (stereo not drawn) ? -1.33% (inactive)

What value of measured inhibition is listed for `O=C(CSc1nc2[nH]ncc2c(=O)[nH]1)NCc1ccccc1` ? -0.89% (inactive)

What value of measured inhibition is listed for `CC(C)(C)C(=O)/C=c1\[nH]c(=O)/c(=C\c2ccccc2F)s1` ? 48.4% (inactive)
